These entries and their values trace back to patent US20240272170A1.

experimental target: YA peptide (Octet assay of PS557 variants)
measurement description: Octet (BLI), peptide on sensor, response after 200 s association
Please go through the items and note down their Octet response.
One number for each entry, in nm.

Some solved entries appear below for comparison.
[
  {
    "binder": "PS829 (designed binder) MPTAASATESAIEDTPAPARPEVDGRTKPKRQPRYHVVLWDDDDHTYQYVVVMLQSLFGHPRERGYRLAKEMDTLGRVIVLTTTREHAELKRDQIHAFGYDRLLARSKGSMKASIEAEE",
    "property": "Octet response",
    "endpoint value": 0.749
  },
  {
    "binder": "PS809 (designed binder) MPTAASATESAIEDTPAPARPEVDGRTKPKRQPRYHVVLWNDDDHTYQYVVVMLQSLFGHPPERGYRLAKEMDTQGRVIVLTTTREHAELKRDQIHAFGYDRLLARSKGSMKASIEAEE",
    "property": "Octet response",
    "endpoint value": 0.0027
  }
]

Shifting focus to the binder that follows.
Query: Read the entry PS808 (designed binder) MPTAASATESAIEDTPAPARPEVDGRTKPKRQPRYHVVLWNDDDHTYQYVVVMLRSLFGHPPERGYRLAKEVDTQGRVIVLTTTREHAELKRDQIHAFGYDRLLARSKGSMKASIEAEE and write its reported Octet response.
Response: 0.0539
